# measured on: T1, cynomolgus monkey TREM2 Fc fusion (entire TREM2 ECD; only one Fc arm fused to TREM2) (cynomolgus monkey, UniProt Q9NZC2 19-174 (human entry))
# T1 construct: also called cyno TREM2-Fc
# T1 chain: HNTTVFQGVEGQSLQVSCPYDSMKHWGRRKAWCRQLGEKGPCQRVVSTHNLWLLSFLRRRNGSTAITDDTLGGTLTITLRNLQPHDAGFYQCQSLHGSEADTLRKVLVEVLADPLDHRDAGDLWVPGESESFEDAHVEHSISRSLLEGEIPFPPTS
# assay comment: BLI, Fab, monovalent
Reported pKd values for the following binders.
Units for pKd: none; it is -log10 of a concentration expressed in mol/L.

## Input Look at this binder and give its reported pKd. AL2p-31 (antibody, V domains shown, Fab and IgG formats under one id) VH: QVQLVQSGAEVKKPGSSVKVSCKASGYAFSSQWMNWVRQAPGQGLEWMGRIYPGGGDTNYARKFQGRVTITADESTSTAYMELSSLRSEDTAVYYCARLLRNQPGESYAMDYWGQGTLVTVSS VL: GVVMTQTPLSLSVTPGQPASISCRSSQSLVHSNGYTYLHWYLQKPGQSPQLLIYKVSNRRSGVPDRFSGSGSGTDFTLKISRVEAEDVGVYYCSQSTRVPYTFGQGTKLEIK
## Output 8.46

## Input Item under review: AL2p-17 (antibody, V domains shown, Fab and IgG formats under one id) VH: QVQLVQSGAEVKKPGSSVKVSCKASGYAFSSHWMNWVRQAPGQGLEWMGRIYPGDGDTNYAQKRQGRVTITADESTSTAYMELSSLRSEDTAVYYCARLLRNQPGESYAMDYWGQGTLVTVSS VL: DVVMTQTPLSLSVTPGQPASISCRSSRSLVHSNGYTYLHWYLQKPGQSPQLLIYKVSNRVSGVPDRFSGSGSGTDFTLKISRVEAEDVGVYYCSQSTRVPYTFGQGTKLEIK . Reported pKd?
## Output 8.34
